# measured on: Rap guanine nucleotide exchange factor 3 (Homo sapiens) (UniProt O95398)
# experimental details: Counterscreen qHTS for agonist of cAMP-regulated guanine nucleotide exchange factor 3 (EPAC1) (AID 1645889); further: % of control where 0% means no effect; nearly all actives have a fitted effect of over 40% in size
# condition description: EPAC1 Rap1B-BODIPY-GDP exchange, fluorescence; series mostly up to 154 µM
Records with an inconclusive call do not appear. Activity calls are given as the source filed them. The call rests on the fitted dose curve; in most records, active means well fitted activation curve with a large enough effect; inconclusive means small, poorly fitted or top-dose-only effect, or another doubt; inactive means no such curve, though single readings can be large or run the other way.
readout: activation

// below: answered compounds
>  <compound>
Cc1ccc(CNS(=O)(=O)c2ccc(-n3cnnn3)c(C)c2)cc1

>  <activation>
5.31% [at 30.8 µM] (inactive)

$$$$
>  <compound>
COc1ccc(CCNC(=O)CCCCCn2c(SCC(N)=O)nc3cc4c(cc3c2=O)OCO4)cc1OC

>  <activation>
inactive

$$$$
>  <compound>
COc1ccc(C(CC(=O)N2CCOCC2)c2c(OC)cc(OC)c3c(-c4ccccc4)cc(=O)oc23)cc1 (stereo not given)

>  <activation>
inactive

$$$$
>  <compound>
O=C1CSC2(C(=O)N(Cc3cccc(C(F)(F)F)c3)c3ccccc32)N1c1ccc(F)c(F)c1 (stereo not given)

>  <activation>
inactive

$$$$
>  <compound>
Cc1cc(=O)n2c(sc3ccccc32)c1C#N

>  <activation>
22.2% [at 30.8 µM] (inactive)

$$$$

Problem: Tell me its activation given `O=C(O)CCN1C(=O)/C(=C\c2cccc(Oc3ccccc3)c2)SC1=S` as the entry.
Solution: inactive

Problem: Tell me its activation given `CC(=O)N1CCc2cc(CNC(=O)c3ccccc3Br)ccc21` as the entry.
Solution: inactive

Problem: Tell me its activation given `CC(C)(C)c1ccc(-c2nc(SCCCOc3ccccc3)n3[nH]c(=O)cc3n2)cc1` as the entry.
Solution: inactive

Problem: Tell me its activation given `COC(=O)c1c(SC)nc2ccccc2c1OCc1cc(C)ccc1C` as the entry.
Solution: inactive

Problem: Tell me its activation given `C=CCOc1ccc(/C=C2\SC(=S)N(NS(=O)(=O)c3ccccc3)C2=O)cc1` as the entry.
Solution: inactive
